- method: ADME solubility determination at pH 2.0 and pH 7.4
- Type: physicochemical
- experimental context: aqueous buffer, thermodynamic from solid; PBS pH 2.0, shaken at 25° C. for 24 hours, LC-MS/MS; read-out: Solubility at pH 2.0
measurement name: solubility at 24 h

INSERT INTO assay_data (compound, result) VALUES
  ('COc1nccc(C)c1-c1ncc2cnn(Cc3ccc(-c4nc(C(F)(F)F)cn4C)cc3)c2n1', '> 10 µM'),
  ('CC(C)c1ccccc1-c1ncc2ncn(Cc3ccc(-c4nc(C(F)(F)F)cn4C)cc3)c2n1', '> 10 µM'),
  ('COc1ncnc(C2CC2)c1-c1ncc2cnn([C@@H](C)c3ccc(-c4nc(C(F)(F)F)cn4C(C)C)cc3)c2n1', '> 10 µM'),
  ('Cc1nn(Cc2ccc(-c3nc(C(F)(F)F)cn3C)cc2)c2nc(-c3ccccc3C(C)C)ncc12', '< 10 µM'),
  ('CCn1cc(C(F)(F)F)nc1-c1ccc(Cn2ncc3cnc(-c4c(OC5CCC5)ncnc4C4CC4)nc32)cc1', '< 10 µM');

Task: I am curious: what solubility at 24 h value has been reported for `CCn1cc(C(F)(F)F)nc1-c1ccc(Cn2nc(OC)c3cnc(-c4c(OC)ncnc4C4CC4)nc32)cc1` ?
Output: > 10 µM

Task: Give its solubility at 24 h value. Item: COc1ncnc(C2CC2)c1-c1ncc2cnn(C(C)c3ccc(-c4nc(C(F)(F)F)cn4CCF)cc3)c2n1 (stereo not shown)
Output: > 10 µM
